Tested on: MCF-7 cells
Experiment: MCF-7 GI50 determination (crystal violet growth inhibition)
Format: cell-based, human
Settings: Homo sapiens, MCF7, 96 h; MCF-7 cells, 4 days of treatment, crystal violet; read-out: MCF-7 Cells GI50
METRIC_NAME: GI50 (nM)
Note: unit nM is implicit; provide only the numeric part.

COMPOUND	TARGET_UNDER_TEST	OUTPUT_UNIT	RESULT_NUMBER
CC[C@]1(O)C[C@H]2CN(CCc3c([nH]c4ccc(C)cc34)[C@@](C(=O)OC)(c3cc4c(cc3OC)N(C=O)[C@H]3[C@@](O)(C(=O)OC)[C@H](OC(C)=O)[C@]5(CC)C=CCN6CC[C@]43[C@@H]65)C2)C1 [Example 76, 12′-methylvincristine]	MCF-7 cells	nM	3

Now look at this one.
Return GI50 for the following compound: CC[C@]1(O)C[C@H]2CN(CCc3c([nH]c4cc(I)c(I)cc34)[C@@](C(=O)OC)(c3cc4c(cc3OC)N(C)[C@H]3[C@@](O)(C(=O)OC)[C@H](OC(C)=O)[C@]5(CC)C=CCN6CC[C@]43[C@@H]65)C2)C1 [Example 91, 12′,13′-diiodovinblastine]
200
